MEASURED_PROPERTY: melting point

Look up melting point: CC1CC(=O)NN=C1c1ccc(NN=C(C#N)C#N)cc1 (single isomer, unassigned; (+))
210 to 214 °C

Look up melting point: O=C1NC(=O)C(Cc2ccc(OCCON=Cc3cccnc3)cc2)S1 (stereo unspecified)
155 to 157 °C

Look up melting point: O=C1CCC(c2ccc(-c3ccccc3F)cc2)O1 (stereo unspecified)
74 to 75 °C

Look up melting point: O=C1Nc2ccccc2Nc2nc(-c3ccccc3)ncc21
260 to 261 °C

Look up melting point: O=C(CCCN1CCN(c2ccc(F)cc2)CC1)NC1c2ccccc2CSc2ccccc21 (stereo unspecified)
194 °C

Look up melting point: CS(=O)(=O)Nc1cccc(Nc2nc(NC3CCCC3)c3nc[nH]c3n2)c1
234 to 239 °C

Look up melting point: NC(=O)c1cc2ccccc2nc1N
240 to 242 °C

Look up melting point: COc1ccc2c(c1)c(-c1[nH]c3nccnc3c1C)cn2C
243 to 244 °C

Look up melting point: O=C1OCC(C(F)(F)F)N1c1nc(-c2ccc(Br)cc2)cs1 (stereo unspecified)
154 to 156 °C

Look up melting point: COc1cc(C(=O)N2Cc3ccc(C(=O)NCc4cccc(C(F)(F)F)c4)n3Cc3ccccc32)ccc1-c1ccccc1C
176 to 177 °C

Look up melting point: O=C(Nc1ccc(C(=O)N2Cc3cccn3Cc3ccccc32)c(Cl)c1)c1ccccc1-c1cccs1
132 to 136 °C
